Cited source: patent US4560679A

Experiment: acute toxicity
Settings: mouse, in vivo; ICR female mice; oral dosage; observed 7 days; read-out: Acute Toxicity LD50, Oral Dosage

ENTRY_SMILES: C[Si](C)(C)CCSCCNC(=O)c1cccnc1
LD50 at 168 h: > 2000 mg/kg

ENTRY_SMILES: C[Si](C)(C)CCSCCNC(=O)c1cccc2ccccc12
LD50 at 168 h: > 3000 mg/kg

ENTRY_SMILES: C[Si](C)(C)CCSCCNC(=O)C1CCCCC1
LD50 at 168 h: 1000 to 2000 mg/kg

ENTRY_SMILES: CCCCCCCC(=O)NCCSCC[Si](C)(C)C
LD50 at 168 h: > 3000 mg/kg

ENTRY_SMILES: C[Si](C)(C)CCSCCNC(=O)c1ccccc1
LD50 at 168 h: > 2000 mg/kg

ENTRY_SMILES: C=CCNCCSCC[Si](C)(C)C
LD50 at 168 h: 846 mg/kg
